Recorded values, source ChEMBL document CHEMBL3774329.

# TEST_TARGET: Cruzipain (Trypanosoma cruzi) (UniProt P25779)
# Sequence (P25779 123-467 limits assumed): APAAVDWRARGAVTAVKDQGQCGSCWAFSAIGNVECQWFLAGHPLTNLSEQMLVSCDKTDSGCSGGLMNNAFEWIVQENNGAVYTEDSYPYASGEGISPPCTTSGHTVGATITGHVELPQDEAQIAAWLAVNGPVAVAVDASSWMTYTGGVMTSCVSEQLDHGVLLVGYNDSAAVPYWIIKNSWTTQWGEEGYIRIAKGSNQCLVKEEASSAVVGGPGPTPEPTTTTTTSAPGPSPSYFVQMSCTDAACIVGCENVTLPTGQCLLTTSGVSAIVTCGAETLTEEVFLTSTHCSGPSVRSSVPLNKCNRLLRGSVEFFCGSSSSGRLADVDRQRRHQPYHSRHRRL
# TEST_DESCRIPTION: Inhibition of His-tagged recombinant Trypanosoma cruzi cruzain using Z-Phe-Arg-AMC as substrate assessed as ratio of Kinact to Ki preincubated for 5 mins at pH 5.5 by spectrofluorometric analysis
OUTCOME_MEASURE: Ratio (M⁻¹ s⁻¹)

Query: Query (compound): CN1CCN(C(=O)N[C@@H](Cc2ccccc2)C(=O)N[C@H](/C=C/S(=O)(=O)c2ccccc2)CCc2ccccc2)CC1 ; field requested: Ratio
Reply: 158000

Query: Query (compound): CN1CCN(C(=O)N[C@@H](CCCONC(=N)N)C(=O)N[C@H](/C=C/S(=O)(=O)c2ncccn2)CCc2ccccc2)CC1 ; field requested: Ratio
Reply: 320000

Query: Query (compound): CN1CCN(C(=O)N[C@@H](CCCONC(=N)N)C(=O)N[C@H](/C=C/S(=O)(=O)c2ccccc2)CCc2ccccc2)CC1.Cl.Cl ; field requested: Ratio
Reply: 43300

Query: Query (compound): CONC(=N)NCCC[C@H](NC(=O)N1CCN(C)CC1)C(=O)N[C@H](/C=C/S(=O)(=O)c1ccccc1)CCc1ccccc1 ; field requested: Ratio
Reply: 9100

A: CONC(=N)NCCC[C@H](NC(=O)N1CCN(C)CC1)C(=O)N[C@H](/C=C/S(=O)(=O)c1ccccn1)CCc1ccccc1
B: CN1CCN(C(=O)N[C@@H](CCCNC(=N)N)C(=O)N[C@H](/C=C/S(=O)(=O)c2ccccc2)CCc2ccccc2)CC1
Query: // compare measured Ratio, left A , right B , return larger Kindly state the label of the option you pick.
Reply: B

* * *

# TEST_TARGET: Cruzipain (Trypanosoma cruzi) (UniProt P25779)
# TEST_DESCRIPTION: Inhibition of His-tagged recombinant Trypanosoma cruzi cruzain using Z-Phe-Arg-AMC as substrate assessed as ratio of Kinact to Ki preincubated for 5 mins at pH 8 by spectrofluorometric analysis
OUTCOME_MEASURE: Ratio (M⁻¹ s⁻¹)

// solved cases for Ratio follow
Query: Query (compound): CN1CCN(C(=O)N[C@@H](CCCCNC(=N)N)C(=O)N[C@H](/C=C/S(=O)(=O)c2ccccc2)CCc2ccccc2)CC1 ; field requested: Ratio
Reply: 59700

Query: Query (compound): CONC(=N)NCCC[C@H](NC(=O)N1CCN(C)CC1)C(=O)N[C@H](/C=C/S(=O)(=O)c1ccccc1)CCc1ccccc1 ; field requested: Ratio
Reply: 65700

P: CN1CCN(C(=O)N[C@@H](CCCONC(=N)N)C(=O)N[C@H](/C=C/S(=O)(=O)c2ccccc2)CCc2ccccc2)CC1.Cl.Cl
Q: CN1CCN(C(=O)N[C@@H](CCCNC(=N)N)C(=O)N[C@H](/C=C/S(=O)(=O)c2ccccc2)CCc2ccccc2)CC1
R: CN1CCN(C(=O)N[C@@H](CCCNC(=N)N)C(=O)N[C@H](/C=C/S(=O)(=O)c2ccccn2)CCc2ccccc2)CC1
S: CN1CCN(C(=O)N[C@@H](CCCONC(=N)N)C(=O)N[C@H](/C=C/S(=O)(=O)c2ncccn2)CCc2ccccc2)CC1
T: CONC(=N)NCCC[C@H](NC(=O)N1CCN(C)CC1)C(=O)N[C@H](/C=C/S(=O)(=O)c1ccccn1)CCc1ccccc1
Query: Put the compounds in ascending order of Ratio. API: response body holds the labels in the requested order.
Reply: S, R, P, Q, T
(S: 1500 M⁻¹ s⁻¹, R: 3100 M⁻¹ s⁻¹, P: 53400 M⁻¹ s⁻¹, Q: 113000 M⁻¹ s⁻¹, T: 1.17e+06 M⁻¹ s⁻¹)

* * *

# System: Trypanosoma cruzi
# TEST_DESCRIPTION: Antiparasitic activity against Trypanosoma cruzi CA-I/72 trypomastigote infected in mouse C2C12 cells after 72 hrs by DAPI-staining based microscopic analysis
# Type: functional, organism-based
# RUN_CONDITIONS: CA-I/72, C2C12, 72 h
OUTCOME_MEASURE: EC50 (nM)
Give just the number in nM; leave the unit off.

Query: Query (compound): CONC(=N)NCCC[C@H](NC(=O)N1CCN(C)CC1)C(=O)N[C@H](/C=C/S(=O)(=O)c1ccccc1)CCc1ccccc1 ; field requested: EC50
Reply: 269

* * *

# TEST_TARGET: Cruzipain (Trypanosoma cruzi) (UniProt P25779)
# TEST_DESCRIPTION: Inhibition of His-tagged recombinant Trypanosoma cruzi cruzain using Z-Phe-Arg-AMC as substrate assessed as ratio of Kinact to Ki preincubated for 5 mins at pH 5.5 by spectrofluorometric analysis
OUTCOME_MEASURE: Ratio (M⁻¹ s⁻¹)

// solved cases for Ratio follow
Query: Query (molecule): CN1CCN(C(=O)N[C@@H](CCONC(=N)N)C(=O)N[C@H](/C=C/S(=O)(=O)c2ccccc2)CCc2ccccc2)CC1 ; field requested: Ratio
Reply: 93100

Query: Query (molecule): CN1CCN(C(=O)N[C@@H](CCCNC(=N)N)C(=O)N[C@H](/C=C/S(=O)(=O)c2ccccn2)CCc2ccccc2)CC1 ; field requested: Ratio
Reply: 8100

A: CN1CCN(C(=O)N[C@@H](CCCCNC(=N)N)C(=O)N[C@H](/C=C/S(=O)(=O)c2ccccc2)CCc2ccccc2)CC1
B: CN1CCN(C(=O)N[C@@H](CCCONC(=N)N)C(=O)N[C@H](/C=C/S(=O)(=O)c2ccccn2)CCc2ccccc2)CC1
Query: # query: argmin of Ratio over A and B Kindly state the label of the option you pick.
Reply: A
(A: 11000 M⁻¹ s⁻¹, B: 214000 M⁻¹ s⁻¹)

* * *

# TEST_TARGET: Cruzipain (Trypanosoma cruzi)
# TEST_DESCRIPTION: Inhibition of His-tagged recombinant Trypanosoma cruzi cruzain using Z-Phe-Arg-AMC as substrate assessed as ratio of Kinact to Ki preincubated for 5 mins at pH 8 by spectrofluorometric analysis
OUTCOME_MEASURE: Ratio (M⁻¹ s⁻¹)

Query: Query (compound): CN1CCN(C(=O)N[C@@H](CCCONC(=N)N)C(=O)N[C@H](/C=C/S(=O)(=O)c2ccccn2)CCc2ccccc2)CC1 ; field requested: Ratio
Reply: 308000

P: CN1CCN(C(=O)N[C@@H](CCONC(=N)N)C(=O)N[C@H](/C=C/S(=O)(=O)c2ccccc2)CCc2ccccc2)CC1
Q: CN1CCN(C(=O)N[C@@H](Cc2ccccc2)C(=O)N[C@H](/C=C/S(=O)(=O)c2ccccc2)CCc2ccccc2)CC1
Query: // compare measured Ratio, left P , right Q , return larger Kindly state the label of the option you pick.
Reply: P
